- test.system: BAF/Tel-Tie1-Q2/sACP (Homo sapiens, UniProt P35590)
- Construct: fused on or other part: P41212 (Transcription factor ETV6)
- run.description: BaF3 proliferation assay
- Type: cell-based, murine
assay.readout: EC50

Asked: Reported EC50, molecule CNC(=O)c1cc(Oc2ccc3nc(NC4CCCCC4O)sc3c2)ccn1 (stereo not shown) : ____
Given back: > 10 µM

====

- test.system: KDR (Homo sapiens, UniProt P35968)
- Sequence (P35968 20-1356, species assumed): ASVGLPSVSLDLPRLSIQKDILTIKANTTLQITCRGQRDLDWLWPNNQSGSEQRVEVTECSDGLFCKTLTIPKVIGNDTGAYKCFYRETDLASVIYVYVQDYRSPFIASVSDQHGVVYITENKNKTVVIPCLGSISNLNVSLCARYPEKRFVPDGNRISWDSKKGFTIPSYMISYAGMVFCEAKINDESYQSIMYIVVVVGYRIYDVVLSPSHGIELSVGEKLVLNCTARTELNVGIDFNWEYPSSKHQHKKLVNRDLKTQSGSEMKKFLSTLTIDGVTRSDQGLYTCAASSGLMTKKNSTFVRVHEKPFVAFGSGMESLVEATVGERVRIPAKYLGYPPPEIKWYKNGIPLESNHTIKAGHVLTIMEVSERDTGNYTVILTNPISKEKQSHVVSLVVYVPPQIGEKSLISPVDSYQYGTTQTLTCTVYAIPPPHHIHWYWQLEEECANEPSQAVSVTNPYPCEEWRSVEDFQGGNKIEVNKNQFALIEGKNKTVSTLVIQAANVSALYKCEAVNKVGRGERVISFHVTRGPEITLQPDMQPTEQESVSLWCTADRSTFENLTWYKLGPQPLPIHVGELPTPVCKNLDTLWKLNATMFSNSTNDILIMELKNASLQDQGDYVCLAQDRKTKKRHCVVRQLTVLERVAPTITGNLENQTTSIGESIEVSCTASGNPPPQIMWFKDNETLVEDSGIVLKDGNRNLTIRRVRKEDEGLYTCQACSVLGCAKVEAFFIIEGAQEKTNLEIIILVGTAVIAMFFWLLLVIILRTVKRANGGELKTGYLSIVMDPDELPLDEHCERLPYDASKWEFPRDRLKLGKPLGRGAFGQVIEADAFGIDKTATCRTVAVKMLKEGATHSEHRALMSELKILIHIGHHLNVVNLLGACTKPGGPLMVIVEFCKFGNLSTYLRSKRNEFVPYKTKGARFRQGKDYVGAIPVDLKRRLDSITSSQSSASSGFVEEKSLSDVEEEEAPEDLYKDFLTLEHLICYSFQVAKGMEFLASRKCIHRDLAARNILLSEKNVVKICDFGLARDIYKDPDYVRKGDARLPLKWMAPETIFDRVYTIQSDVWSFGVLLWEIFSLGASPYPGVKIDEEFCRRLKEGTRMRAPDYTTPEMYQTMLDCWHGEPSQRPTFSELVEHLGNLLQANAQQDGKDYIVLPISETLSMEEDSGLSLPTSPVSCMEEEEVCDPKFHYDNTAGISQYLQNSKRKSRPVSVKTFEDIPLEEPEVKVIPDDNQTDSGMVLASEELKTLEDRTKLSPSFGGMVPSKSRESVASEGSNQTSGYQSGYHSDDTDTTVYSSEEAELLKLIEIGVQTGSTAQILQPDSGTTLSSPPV
- run.description: In vitro kinase assay (Table 1)
- Assay type: biochemical
- test.settings: KDR=VEGF receptor
assay.readout: IC50

Asked: Form field: reported IC50 of CNC(=O)c1cc(Oc2ccc3nc(NC4CCCCC4O)sc3c2)ccn1 (stereo not shown)
Given back: > 25 µM

====

- test.system: BAF/Tel-TRKC-Q2/sACP (Homo sapiens, UniProt Q16288)
- Construct: fused on or other part: P41212 (Transcription factor ETV6)
- run.description: BaF3 proliferation assay
- Assay type: cell-based, murine
assay.readout: EC50

Asked: Can you look up EC50 on BAF/Tel-TRKC-Q2/sACP (Homo sapiens, UniProt Q16288) for CNC(=O)c1cc(Oc2ccc3nc(NC4CCCCC4O)sc3c2)ccn1 (stereo not shown) [Compound (I)] ?
Given back: > 10 µM

====

- test.system: PKC_theta (Homo sapiens)
- Sequence (Q04759 whole entry): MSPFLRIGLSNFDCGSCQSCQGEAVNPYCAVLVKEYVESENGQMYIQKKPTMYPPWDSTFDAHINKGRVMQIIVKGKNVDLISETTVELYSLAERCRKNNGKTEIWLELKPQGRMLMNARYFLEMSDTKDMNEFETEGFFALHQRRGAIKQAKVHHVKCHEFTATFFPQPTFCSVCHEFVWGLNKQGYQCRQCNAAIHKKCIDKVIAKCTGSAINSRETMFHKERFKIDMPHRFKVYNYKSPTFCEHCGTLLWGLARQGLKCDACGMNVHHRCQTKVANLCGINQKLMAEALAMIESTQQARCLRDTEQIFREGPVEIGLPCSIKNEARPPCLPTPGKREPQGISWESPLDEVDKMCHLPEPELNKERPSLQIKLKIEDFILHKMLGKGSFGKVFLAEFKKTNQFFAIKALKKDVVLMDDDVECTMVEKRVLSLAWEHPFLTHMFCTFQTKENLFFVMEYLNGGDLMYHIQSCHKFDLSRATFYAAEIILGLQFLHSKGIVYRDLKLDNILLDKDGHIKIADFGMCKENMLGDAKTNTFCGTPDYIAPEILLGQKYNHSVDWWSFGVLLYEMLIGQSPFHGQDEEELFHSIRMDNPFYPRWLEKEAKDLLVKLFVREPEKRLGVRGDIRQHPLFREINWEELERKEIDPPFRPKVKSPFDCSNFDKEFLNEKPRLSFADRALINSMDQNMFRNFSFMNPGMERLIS
- run.description: In vitro kinase assay (Table 1)
- Assay type: biochemical
assay.readout: IC50

Asked: Sample CNC(=O)c1cc(Oc2ccc3nc(NC4CCCCC4O)sc3c2)ccn1 (stereo not shown) — what was its IC50?
Given back: > 10 µM

====

- test.system: Cdk7 cyclinH MAT1 (Homo sapiens)
- run.description: In vitro kinase assay (Table 1)
- Assay type: biochemical
assay.readout: IC50

Asked: Checklist item: IC50 tested on Cdk7 cyclinH MAT1 (Homo sapiens), entry CNC(=O)c1cc(Oc2ccc3nc(NC4CCCCC4O)sc3c2)ccn1 (stereo not shown) [Compound (I)] , value?
Given back: > 10 µM

====

- test.system: Ck2alpha1 (Homo sapiens, UniProt P68400)
- run.description: In vitro kinase assay (Table 1)
- Type: biochemical
assay.readout: IC50

Asked: Fill in the recorded IC50 for this compound, with Ck2alpha1 (Homo sapiens, UniProt P68400) as test system: CNC(=O)c1cc(Oc2ccc3nc(NC4CCCCC4O)sc3c2)ccn1 (stereo not shown)
Given back: > 10 µM

====

- test.system: Dyrk3 (Homo sapiens, UniProt O43781)
- run.description: In vitro kinase assay (Table 1)
- Type: biochemical
assay.readout: IC50

Asked: // lookup IC50 for CNC(=O)c1cc(Oc2ccc3nc(NC4CCCCC4O)sc3c2)ccn1 (stereo not shown)
Given back: > 10 µM

====

- test.system: BAF/Tel-EphB2-Q2/sACP (Homo sapiens)
- Construct: fused on or other part: P41212 (Transcription factor ETV6)
- Sequence (P29323 621-884 limits assumed): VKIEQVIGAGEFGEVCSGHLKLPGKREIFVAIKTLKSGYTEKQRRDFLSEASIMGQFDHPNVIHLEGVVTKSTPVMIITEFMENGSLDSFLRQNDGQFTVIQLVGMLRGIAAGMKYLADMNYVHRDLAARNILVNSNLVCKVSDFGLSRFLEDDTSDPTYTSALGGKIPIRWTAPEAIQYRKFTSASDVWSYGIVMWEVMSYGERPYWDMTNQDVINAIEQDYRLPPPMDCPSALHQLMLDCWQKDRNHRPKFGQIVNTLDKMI
- run.description: BaF3 proliferation assay
- Format: cell-based, murine
assay.readout: EC50

Asked: # input molecule: CNC(=O)c1cc(Oc2ccc3nc(NC4CCCCC4O)sc3c2)ccn1 (stereo not shown) [Compound (I)] ; wanted: its EC50
Given back: > 10 µM

====

- test.system: PKC_epsilon (Homo sapiens, UniProt Q02156)
- Sequence (Q02156 1-737): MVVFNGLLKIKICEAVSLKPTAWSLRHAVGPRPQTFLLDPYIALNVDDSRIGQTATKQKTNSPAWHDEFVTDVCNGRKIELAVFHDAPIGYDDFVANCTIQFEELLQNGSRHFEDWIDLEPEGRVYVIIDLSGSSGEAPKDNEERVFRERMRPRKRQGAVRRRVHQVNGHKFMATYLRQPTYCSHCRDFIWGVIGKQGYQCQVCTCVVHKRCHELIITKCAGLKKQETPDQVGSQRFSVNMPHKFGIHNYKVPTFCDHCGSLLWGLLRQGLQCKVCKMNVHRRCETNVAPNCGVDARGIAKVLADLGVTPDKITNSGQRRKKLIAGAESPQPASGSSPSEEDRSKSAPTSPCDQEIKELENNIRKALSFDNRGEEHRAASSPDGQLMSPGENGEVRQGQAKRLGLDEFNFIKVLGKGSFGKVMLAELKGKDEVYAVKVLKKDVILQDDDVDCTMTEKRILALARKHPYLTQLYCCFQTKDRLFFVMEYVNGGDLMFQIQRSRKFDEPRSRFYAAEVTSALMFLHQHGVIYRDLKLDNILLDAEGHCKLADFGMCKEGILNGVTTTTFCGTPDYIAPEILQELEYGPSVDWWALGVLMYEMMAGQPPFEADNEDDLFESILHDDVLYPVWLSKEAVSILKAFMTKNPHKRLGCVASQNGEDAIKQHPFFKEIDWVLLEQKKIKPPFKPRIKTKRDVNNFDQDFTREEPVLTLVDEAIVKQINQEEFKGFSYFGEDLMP
- run.description: In vitro kinase assay (Table 1)
- Type: biochemical
assay.readout: IC50

Asked: I'd like to know its IC50. The compound in question is CNC(=O)c1cc(Oc2ccc3nc(NC4CCCCC4O)sc3c2)ccn1 (stereo not shown) [Compound (I)]
Given back: > 25 µM

====

- test.system: PIK3Cbeta (Homo sapiens, UniProt P42338)
- Sequence (P42338 whole entry): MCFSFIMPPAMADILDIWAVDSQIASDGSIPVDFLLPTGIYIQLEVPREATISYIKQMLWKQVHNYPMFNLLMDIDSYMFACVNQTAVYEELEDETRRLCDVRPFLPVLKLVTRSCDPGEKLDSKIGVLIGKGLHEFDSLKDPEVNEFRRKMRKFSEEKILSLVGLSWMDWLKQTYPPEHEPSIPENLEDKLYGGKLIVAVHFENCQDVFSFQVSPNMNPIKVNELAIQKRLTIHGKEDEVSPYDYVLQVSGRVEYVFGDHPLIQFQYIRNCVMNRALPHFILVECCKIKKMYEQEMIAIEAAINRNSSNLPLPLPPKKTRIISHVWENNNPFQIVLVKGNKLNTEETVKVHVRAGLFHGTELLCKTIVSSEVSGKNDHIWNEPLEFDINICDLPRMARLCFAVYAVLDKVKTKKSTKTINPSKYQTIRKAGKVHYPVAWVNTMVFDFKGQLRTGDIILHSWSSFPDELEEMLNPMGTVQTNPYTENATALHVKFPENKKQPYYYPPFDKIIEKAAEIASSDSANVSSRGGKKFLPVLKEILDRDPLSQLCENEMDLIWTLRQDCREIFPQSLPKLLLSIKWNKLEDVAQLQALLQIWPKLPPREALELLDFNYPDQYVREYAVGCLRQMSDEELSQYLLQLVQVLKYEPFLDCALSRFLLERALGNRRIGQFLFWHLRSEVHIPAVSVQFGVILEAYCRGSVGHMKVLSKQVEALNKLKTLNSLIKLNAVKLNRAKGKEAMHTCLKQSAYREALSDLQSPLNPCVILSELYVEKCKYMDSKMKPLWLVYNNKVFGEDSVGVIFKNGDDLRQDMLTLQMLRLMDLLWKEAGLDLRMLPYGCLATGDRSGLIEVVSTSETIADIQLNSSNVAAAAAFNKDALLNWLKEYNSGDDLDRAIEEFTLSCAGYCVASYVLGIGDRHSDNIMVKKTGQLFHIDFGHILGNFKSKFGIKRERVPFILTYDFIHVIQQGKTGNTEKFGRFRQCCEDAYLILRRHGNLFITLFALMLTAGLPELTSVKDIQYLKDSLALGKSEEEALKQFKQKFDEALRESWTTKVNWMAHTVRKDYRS
- Sequence (P27986 whole entry partner): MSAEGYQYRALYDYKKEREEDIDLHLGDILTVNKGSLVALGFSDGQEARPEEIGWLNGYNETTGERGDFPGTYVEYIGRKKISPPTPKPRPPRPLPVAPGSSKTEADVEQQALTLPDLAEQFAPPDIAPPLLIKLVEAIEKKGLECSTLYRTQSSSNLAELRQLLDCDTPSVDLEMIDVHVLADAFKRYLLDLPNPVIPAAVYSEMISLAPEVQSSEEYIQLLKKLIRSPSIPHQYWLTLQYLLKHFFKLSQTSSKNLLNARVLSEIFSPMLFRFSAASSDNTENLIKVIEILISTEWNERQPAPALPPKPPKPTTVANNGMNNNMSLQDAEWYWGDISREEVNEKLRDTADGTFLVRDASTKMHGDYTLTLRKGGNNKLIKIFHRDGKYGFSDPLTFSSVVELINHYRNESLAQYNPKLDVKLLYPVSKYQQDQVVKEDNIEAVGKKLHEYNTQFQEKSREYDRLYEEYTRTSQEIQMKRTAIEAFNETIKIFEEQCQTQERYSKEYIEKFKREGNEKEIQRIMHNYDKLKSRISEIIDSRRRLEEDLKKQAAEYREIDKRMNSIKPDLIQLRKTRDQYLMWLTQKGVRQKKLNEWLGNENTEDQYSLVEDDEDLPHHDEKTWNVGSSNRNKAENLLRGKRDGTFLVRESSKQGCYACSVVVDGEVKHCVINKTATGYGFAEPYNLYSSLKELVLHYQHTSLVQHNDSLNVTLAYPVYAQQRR
- run.description: In vitro kinase assay (Table 1)
- Assay type: biochemical
assay.readout: IC50

Asked: Identify the measured IC50 of CNC(=O)c1cc(Oc2ccc3nc(NC4CCCCC4O)sc3c2)ccn1 (stereo not shown) for PIK3Cbeta (Homo sapiens, UniProt P42338).
Given back: > 25 µM

====

- test.system: BAF/Tel-Lck-2.1/sACP (Homo sapiens, UniProt P06239)
- Construct: fused on or other part: P41212 (Transcription factor ETV6)
- Sequence (P06239 245-498 limits assumed, change not shown): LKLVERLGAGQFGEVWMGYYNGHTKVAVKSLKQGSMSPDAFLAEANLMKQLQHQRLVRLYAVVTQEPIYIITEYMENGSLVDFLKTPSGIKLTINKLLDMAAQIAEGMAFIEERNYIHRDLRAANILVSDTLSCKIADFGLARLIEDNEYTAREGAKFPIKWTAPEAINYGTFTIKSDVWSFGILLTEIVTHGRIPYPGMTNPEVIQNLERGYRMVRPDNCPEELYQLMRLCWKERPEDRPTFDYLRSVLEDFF
- run.description: BaF3 proliferation assay
- Type: cell-based, murine
assay.readout: EC50

Asked: I am curious: what EC50 value has been reported for CNC(=O)c1cc(Oc2ccc3nc(NC4CCCCC4O)sc3c2)ccn1 (stereo not shown) ?
Given back: > 10 µM

====

- test.system: BAF/Tel-FLT4-Q2/sACP (Homo sapiens)
- Construct: fused on or other part: P41212 (Transcription factor ETV6)
- Sequence (P35916 845-1173 limits assumed, change not shown): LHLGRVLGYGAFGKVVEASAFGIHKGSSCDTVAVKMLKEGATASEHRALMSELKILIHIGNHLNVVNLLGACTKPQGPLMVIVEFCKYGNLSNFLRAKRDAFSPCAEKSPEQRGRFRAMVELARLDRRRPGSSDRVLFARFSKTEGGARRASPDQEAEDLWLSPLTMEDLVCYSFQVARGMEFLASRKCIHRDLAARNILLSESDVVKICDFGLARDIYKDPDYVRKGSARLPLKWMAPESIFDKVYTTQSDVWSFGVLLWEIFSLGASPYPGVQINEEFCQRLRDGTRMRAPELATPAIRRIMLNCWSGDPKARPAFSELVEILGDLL
- run.description: BaF3 proliferation assay
- Assay type: cell-based, murine
assay.readout: EC50

Asked: // query EC50 value for entry CNC(=O)c1cc(Oc2ccc3nc(NC4CCCCC4O)sc3c2)ccn1 (stereo not shown)
Given back: > 10 µM

====

- test.system: BAF/Tel-MER-3.2 (Homo sapiens)
- Construct: fused on or other part: P41212 (Transcription factor ETV6)
- Sequence (Q12866 587-858 limits assumed, change not shown): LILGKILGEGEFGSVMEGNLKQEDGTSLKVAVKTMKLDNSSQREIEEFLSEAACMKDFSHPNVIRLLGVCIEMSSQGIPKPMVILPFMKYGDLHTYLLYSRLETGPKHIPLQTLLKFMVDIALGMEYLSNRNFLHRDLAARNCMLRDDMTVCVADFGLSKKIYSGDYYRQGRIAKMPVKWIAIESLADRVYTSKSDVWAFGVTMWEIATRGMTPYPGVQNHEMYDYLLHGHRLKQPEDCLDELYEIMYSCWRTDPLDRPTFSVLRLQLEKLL
- run.description: BaF3 proliferation assay
- Type: cell-based, murine
assay.readout: EC50

Asked: Dear colleague, I am looking for the recorded EC50 of the following compound: CNC(=O)c1cc(Oc2ccc3nc(NC4CCCCC4O)sc3c2)ccn1 (stereo not shown)
Given back: > 10 µM

====

- test.system: Erk1 (Homo sapiens, UniProt P27361)
- run.description: In vitro kinase assay (Table 1)
- Type: biochemical
assay.readout: IC50

Asked: Entry CNC(=O)c1cc(Oc2ccc3nc(NC4CCCCC4O)sc3c2)ccn1 (stereo not shown) [Compound (I)] : reported IC50 = ?
Given back: > 10 µM

====

- test.system: PAK4 (Homo sapiens)
- run.description: In vitro kinase assay (Table 1)
- Assay type: biochemical
assay.readout: IC50

Asked: Report IC50 for CNC(=O)c1cc(Oc2ccc3nc(NC4CCCCC4O)sc3c2)ccn1 (stereo not shown) please.
Given back: > 10 µM

====

- test.system: BAF/Tel-TRKA-Q.3/sACP (Homo sapiens)
- Construct: fused on or other part: P41212 (Transcription factor ETV6)
- run.description: BaF3 proliferation assay
- Type: cell-based, murine
assay.readout: EC50

Asked: Dear colleague, I am looking for the recorded EC50 of the following compound: CNC(=O)c1cc(Oc2ccc3nc(NC4CCCCC4O)sc3c2)ccn1 (stereo not shown)
Given back: > 10 µM

====

- test.system: BAF/Tel-InsR-Q.4/sACP (Homo sapiens)
- Construct: fused on or other part: P41212 (Transcription factor ETV6)
- Sequence (P06213 1023-1298 limits assumed, stated change not applied): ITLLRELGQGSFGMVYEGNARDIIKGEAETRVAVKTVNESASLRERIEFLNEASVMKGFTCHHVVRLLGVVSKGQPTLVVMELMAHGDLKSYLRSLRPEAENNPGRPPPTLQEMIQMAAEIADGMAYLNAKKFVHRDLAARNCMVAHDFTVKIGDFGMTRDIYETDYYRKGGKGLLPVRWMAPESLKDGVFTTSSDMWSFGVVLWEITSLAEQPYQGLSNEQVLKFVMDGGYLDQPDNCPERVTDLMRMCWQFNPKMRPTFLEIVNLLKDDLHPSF
- run.description: BaF3 proliferation assay
- Format: cell-based, murine
assay.readout: EC50

Asked: Form field: EC50 recorded for CNC(=O)c1cc(Oc2ccc3nc(NC4CCCCC4O)sc3c2)ccn1 (stereo not shown) [Compound (I)] with BAF/Tel-InsR-Q.4/sACP (Homo sapiens) (enter value)
Given back: > 10 µM

====

- test.system: BAF/Tel-FGR-2.1/sACP (Homo sapiens)
- Construct: fused on or other part: P41212 (Transcription factor ETV6)
- run.description: BaF3 proliferation assay
- Type: cell-based, murine
assay.readout: EC50

Asked: Form field: reported EC50 of CNC(=O)c1cc(Oc2ccc3nc(NC4CCCCC4O)sc3c2)ccn1 (stereo not shown)
Given back: > 10 µM
